System: 697 (B-Lymphoblastic Leukemia)
Measurement description: combination Emax (second highest fraction inhibited in the dose matrix, 72 h); higher = more inhibition; extreme values may be limits of the assay
Readout kind: combination Emax

CN(CCO)CC[C@H](CSc1ccccc1)Nc1ccc(S(=O)(=O)NC(=O)c2ccc(N3CCC([C@@H](O)c4ccccc4-c4ccc(Cl)cc4)CC3)cc2)cc1S(=O)(=O)C(F)(F)F [AZD4320] + Cn1cnc2c(F)c(Nc3ccc(Br)cc3Cl)c(C(=O)NOCCO)cc21 [Selumetinib] (first compound max 1 µM, 7x7, partner max 3 µM) : 1

Specify measured combination Emax for C[C@@H](c1ccc2nccn2c1)n1nnc2ncc(-c3cnn(C)c3)nc21 [Savolitinib] + CC1(C)CCC(CN2CCN(c3ccc(C(=O)NS(=O)(=O)c4ccc(NCC5CCOCC5)c([N+](=O)[O-])c4)c(Oc4cnc5[nH]ccc5c4)c3)CC2)=C(c2ccc(Cl)cc2)C1 [Venetoclax] (first compound max 1 µM, 7x7, partner max 1 µM) .
1

The reported numbers originate from the supplement of paper PMC11061612.
